Target: Human BCMA (human) (UniProt Q02223)
Assay: SPR, IgG on chip, huBCMA analyte
pKd: −log10 of the molar value.
This section presents binders with their documented pKd values.
EXPERIMENTAL_ENDPOINT: pKd

- BINDER: "C01_Rd4_0.6nM_C16 (antibody, V domains shown, IgG) VH: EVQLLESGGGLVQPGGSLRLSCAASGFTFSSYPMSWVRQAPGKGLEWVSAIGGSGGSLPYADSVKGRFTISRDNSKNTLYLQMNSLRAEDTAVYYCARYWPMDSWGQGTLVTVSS VL: EIVLTQSPGTLSLSPGERATLSCRASQSVSSTYLAWYQQKPGQAPRLLIYDASSRAPGIPDRFSGSGSGTDFTLTISRLEPEDFAVYYCQQYSSWPLTFGQGTKVEIK"
  EXPERIMENTAL_ENDPOINT: "pKd"
  VALUE_MEASURED: 9.39
- BINDER: "A02_Rd4_0.6nM_C09 (antibody, V domains shown, IgG) VH: EVQLLESGGGLVQPGGSLRLSCAASGFTFSSYAMNWVRQAPGKGLEWVSAISDSGGSMWYADSVKGRFTISRDNSKNTLYLQMNSLRAEDTAVYYCARYWPMSLWGQGTLVTVSS VL: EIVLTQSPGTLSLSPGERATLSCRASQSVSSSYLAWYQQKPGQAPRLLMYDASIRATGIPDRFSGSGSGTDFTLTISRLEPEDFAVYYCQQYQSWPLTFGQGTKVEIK"
  EXPERIMENTAL_ENDPOINT: "pKd"
  VALUE_MEASURED: 10.74
- BINDER: "A02_Rd4_6nM_C22 (antibody, V domains shown, IgG) VH: EVQLLESGGGLVQPGGSLRLSCAASGFTFSSYAMNWVRQAPGKGLEWVSAVLDSGGSTYYADSVKGRFTISRDNSKNTLYLQMNSLRAEDTAVYYCARYWPMTPWGQGTLVTVSS VL: EIVLTQSPGTLSLSPGERATLSCRASQSVSSSYLAWYQQKPGQAPRLLMYDASIRATGIPDRFSGSGSGTDFTLTISRLEPEDFAVYYCQQYQVWPLTFGQGTKVEIK"
  EXPERIMENTAL_ENDPOINT: "pKd"
  VALUE_MEASURED: 10.27
